# ASSAY SYSTEM: Leucine-rich repeat serine/threonine-protein kinase 2 (Homo sapiens, UniProt Q5S007, G2019S)
# Sequence (Q5S007 whole entry G2019S): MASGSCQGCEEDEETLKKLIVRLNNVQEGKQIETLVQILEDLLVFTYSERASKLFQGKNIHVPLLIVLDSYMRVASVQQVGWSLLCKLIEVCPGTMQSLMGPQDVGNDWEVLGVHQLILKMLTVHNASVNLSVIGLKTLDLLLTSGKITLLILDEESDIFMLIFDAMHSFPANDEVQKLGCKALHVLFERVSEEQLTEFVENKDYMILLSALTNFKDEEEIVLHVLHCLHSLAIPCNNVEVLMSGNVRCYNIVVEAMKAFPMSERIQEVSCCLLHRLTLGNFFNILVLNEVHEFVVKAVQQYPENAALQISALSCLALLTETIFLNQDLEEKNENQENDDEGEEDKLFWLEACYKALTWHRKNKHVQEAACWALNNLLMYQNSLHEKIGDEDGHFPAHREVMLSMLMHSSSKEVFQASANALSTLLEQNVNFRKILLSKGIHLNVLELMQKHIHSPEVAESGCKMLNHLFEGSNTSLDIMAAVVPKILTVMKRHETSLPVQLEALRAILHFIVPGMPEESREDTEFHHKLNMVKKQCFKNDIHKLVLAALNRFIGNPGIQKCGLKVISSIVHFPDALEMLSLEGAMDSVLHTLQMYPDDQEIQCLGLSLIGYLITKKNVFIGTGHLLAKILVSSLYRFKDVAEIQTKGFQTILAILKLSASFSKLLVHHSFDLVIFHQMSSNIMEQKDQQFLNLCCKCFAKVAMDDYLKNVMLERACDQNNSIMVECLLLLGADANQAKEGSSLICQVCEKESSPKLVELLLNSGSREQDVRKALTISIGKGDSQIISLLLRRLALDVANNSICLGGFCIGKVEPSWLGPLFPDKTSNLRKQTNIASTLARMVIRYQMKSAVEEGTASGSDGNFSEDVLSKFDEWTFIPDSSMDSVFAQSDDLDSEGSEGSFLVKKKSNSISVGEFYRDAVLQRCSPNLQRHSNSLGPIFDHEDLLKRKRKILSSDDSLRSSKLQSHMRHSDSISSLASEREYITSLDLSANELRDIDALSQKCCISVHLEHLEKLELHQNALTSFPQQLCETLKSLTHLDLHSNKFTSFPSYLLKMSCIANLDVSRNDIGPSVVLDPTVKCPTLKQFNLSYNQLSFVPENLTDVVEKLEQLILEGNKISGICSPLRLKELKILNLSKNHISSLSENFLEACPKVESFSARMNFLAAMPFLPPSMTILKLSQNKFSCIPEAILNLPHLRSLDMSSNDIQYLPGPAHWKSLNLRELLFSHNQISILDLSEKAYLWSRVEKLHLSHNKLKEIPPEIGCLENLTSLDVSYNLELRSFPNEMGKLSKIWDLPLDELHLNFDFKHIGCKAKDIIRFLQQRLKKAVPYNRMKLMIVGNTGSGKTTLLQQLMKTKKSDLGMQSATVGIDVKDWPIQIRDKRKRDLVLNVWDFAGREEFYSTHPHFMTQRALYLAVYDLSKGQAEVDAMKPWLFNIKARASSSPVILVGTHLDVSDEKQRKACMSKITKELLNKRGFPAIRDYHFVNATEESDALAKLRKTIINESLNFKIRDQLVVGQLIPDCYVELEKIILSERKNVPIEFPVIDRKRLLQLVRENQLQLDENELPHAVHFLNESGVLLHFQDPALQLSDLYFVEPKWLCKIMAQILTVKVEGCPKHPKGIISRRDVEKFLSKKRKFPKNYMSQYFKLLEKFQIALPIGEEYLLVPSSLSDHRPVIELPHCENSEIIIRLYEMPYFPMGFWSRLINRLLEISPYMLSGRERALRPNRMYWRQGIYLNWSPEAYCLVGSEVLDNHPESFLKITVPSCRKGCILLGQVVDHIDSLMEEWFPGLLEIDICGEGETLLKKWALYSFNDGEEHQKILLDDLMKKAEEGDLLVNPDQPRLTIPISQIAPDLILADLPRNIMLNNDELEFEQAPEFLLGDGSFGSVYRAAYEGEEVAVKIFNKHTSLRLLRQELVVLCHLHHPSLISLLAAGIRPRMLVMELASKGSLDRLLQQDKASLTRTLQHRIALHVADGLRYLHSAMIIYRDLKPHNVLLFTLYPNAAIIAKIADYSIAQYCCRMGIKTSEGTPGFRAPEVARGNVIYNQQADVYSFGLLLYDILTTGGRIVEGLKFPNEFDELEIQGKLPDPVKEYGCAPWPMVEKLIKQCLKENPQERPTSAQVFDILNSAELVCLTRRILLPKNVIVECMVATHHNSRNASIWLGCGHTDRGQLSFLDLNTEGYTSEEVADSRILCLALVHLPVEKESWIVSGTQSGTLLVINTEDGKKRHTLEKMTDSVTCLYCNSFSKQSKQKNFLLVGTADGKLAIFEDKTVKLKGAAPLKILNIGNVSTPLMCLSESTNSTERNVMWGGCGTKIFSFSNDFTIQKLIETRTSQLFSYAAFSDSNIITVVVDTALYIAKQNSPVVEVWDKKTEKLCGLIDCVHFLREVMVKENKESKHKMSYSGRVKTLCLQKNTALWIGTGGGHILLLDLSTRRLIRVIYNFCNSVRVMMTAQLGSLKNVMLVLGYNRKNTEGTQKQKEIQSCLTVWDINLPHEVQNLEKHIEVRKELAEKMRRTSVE
# PROTOCOL: Inhibition of purified N-terminal GST-tagged LRRK2 G2019S mutant autophosphorylation activity using myelin basic protein as substrate
RESULT TYPE: pIC50
To interpret pIC50, take it as minus log10 of a concentration measured in moles per litre.

*Q* Need pIC50 of Cc1cc(N/N=C/c2ccncc2)nc2ccccc12 , thanks.
*A* 5.39

====

# ASSAY SYSTEM: Leucine-rich repeat serine/threonine-protein kinase 2 (Homo sapiens, UniProt Q5S007, G2019S)
# PROTOCOL: Inhibition of purified N-terminal GST-tagged LRRK2 G2019S mutant autophosphorylation activity using [gamma32-P]ATP
RESULT TYPE: IC50 (µM)
Please state the figure in µM; there is no need to write the unit.

*Q* Which IC50 is reported for this molecule? Cc1cc(N/N=C/c2ccc(O)c(O)c2)nc2ccccc12
*A* 13.2
